- test.summary: AUC (0 to t) in Sprague-Dawley rat at 10 mg/kg, po
- Assay type: ADME, organism-based
- Set-up: dose 10 mg/kg
- condition.summary: in vivo
recorded.metric: AUC(0-t) (ng·h/mL)
Provide only the numeric value, understood in ng·h/mL.

Exam item: Identify the reported AUC(0-t) for the following entry. `Cc1nc(NC(=O)CN2CCN(C)CC2)sc1-c1ccc2c(/C=C/c3ccccn3)n[nH]c2c1`
Marked response: 952

====

- test.summary: Antiproliferative activity in mouse BAF3 cells assessed as growth inhibition after 72 hrs by CCK8 assay
- Assay type: cell-based
recorded.metric: GI50 at 72 h (nM)
Report only the number, with the unit nM understood.

Worked examples follow.
1) Cc1nc(NC(=O)CN2CCN(C)CC2)sc1-c1ccc2c(-c3ccn(C)n3)n[nH]c2c1: 1530
2) CN1CCN(Cc2ccc(NC(=O)CC(=O)Nc3ccc4c(/C=C/c5ccccn5)n[nH]c4c3)cc2C(F)(F)F)CC1: 2500
3) Cc1nc(NC(=O)c2ccc(CN3CCN(C)CC3)cc2)sc1-c1ccc2c(/C=C/c3ccccn3)n[nH]c2c1: 1460
4) Cc1nc(NC(=O)C(C)C)sc1-c1ccc2c(/C=C/c3ccccn3)n[nH]c2c1: 1580
5) Cc1nc(NC(=O)CN2CCN(C)CC2)sc1-c1ccc2c(/C=C/c3ccccn3)n[nH]c2c1: 1400
6) COCCOCC(=O)Nc1nc(C)c(-c2ccc3c(/C=C/c4ccccn4)n[nH]c3c2)s1: 1070
7) CN1CCN(Cc2ccc(C(=O)NCCSc3ccc4c(/C=C/c5ccccn5)n[nH]c4c3)cc2C(F)(F)F)CC1: 4400
8) CN1CCN(Cc2ccc(NC(=O)CCSc3ccc4c(/C=C/c5cnccn5)n[nH]c4c3)cc2C(F)(F)F)CC1: 1640

Exam item: Give the measured GI50 at 72 h for `Cc1nc(NC(=O)CN2CCN(C)CC2)sc1-c1ccc2c(-c3cccc(F)c3)n[nH]c2c1`
Marked response: 1740

Exam item: Supply measured GI50 at 72 h of `CN1CCN(Cc2ccc(C(=O)Nc3cccc(Sc4ccc5c(/C=C/c6ccccn6)n[nH]c5c4)c3)cc2C(F)(F)F)CC1` in your reply.
Marked response: 1260

Exam item: Quote GI50 at 72 h reported for `CC(=O)Nc1nc(C)c(-c2ccc3c(/C=C/c4ccccn4)n[nH]c3c2)s1` please.
Marked response: 5240

Exam item: Quote GI50 at 72 h reported for CSCCC(N)C(=O)Nc1nc(C)c(-c2ccc3c(/C=C/c4ccccn4)n[nH]c3c2)s1 (stereo not drawn) please.
Marked response: 594

====

- test.summary: AUC (0 to t) in Beagle dog at 5 mg/kg, po
- Format: ADME, organism-based, Canis lupus familiaris
- Set-up: dose 5 mg/kg
- condition.summary: in vivo
recorded.metric: AUC(0-t) (µg·h/mL)
Give a bare numeral; the unit µg·h/mL is implied.

Exam item: Tell us which AUC(0-t) value is on record for `Cc1nc(NC(=O)CN2CCN(C)CC2)sc1-c1ccc2c(/C=C/c3ccccn3)n[nH]c2c1`
Marked response: 0.464

====

log10 GI50 values for the compounds below.
- test.target: High affinity nerve growth factor receptor (Homo sapiens)
- Sequence (P04629 33-796 limits assumed): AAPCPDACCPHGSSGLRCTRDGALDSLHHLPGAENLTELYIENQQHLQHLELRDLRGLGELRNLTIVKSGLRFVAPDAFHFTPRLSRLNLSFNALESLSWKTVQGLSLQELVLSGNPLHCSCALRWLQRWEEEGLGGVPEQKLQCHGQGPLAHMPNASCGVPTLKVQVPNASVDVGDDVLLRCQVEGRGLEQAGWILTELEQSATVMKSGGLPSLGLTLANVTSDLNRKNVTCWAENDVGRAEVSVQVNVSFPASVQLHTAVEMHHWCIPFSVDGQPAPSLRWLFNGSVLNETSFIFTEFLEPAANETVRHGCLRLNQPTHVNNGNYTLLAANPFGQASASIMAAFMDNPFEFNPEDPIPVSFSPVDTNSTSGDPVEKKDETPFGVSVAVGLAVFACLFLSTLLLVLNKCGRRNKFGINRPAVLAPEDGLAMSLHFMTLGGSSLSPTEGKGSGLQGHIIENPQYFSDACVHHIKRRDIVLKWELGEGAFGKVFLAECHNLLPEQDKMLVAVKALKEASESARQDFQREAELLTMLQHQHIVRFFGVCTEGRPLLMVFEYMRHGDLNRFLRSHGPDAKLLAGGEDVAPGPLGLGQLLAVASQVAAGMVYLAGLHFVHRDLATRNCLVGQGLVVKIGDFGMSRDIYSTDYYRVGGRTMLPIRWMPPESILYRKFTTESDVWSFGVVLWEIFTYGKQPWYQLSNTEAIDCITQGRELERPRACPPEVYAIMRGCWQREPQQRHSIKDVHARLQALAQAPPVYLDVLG
- test.summary: Inhibition of wild type TEL fused TRKA (unknown origin) transfected in mouse BAF3 cells assessed as growth inhibition after 72 hrs by CCK8 assay
- Format: cell-based
Each number you see is log10 of GI50, and the unit inside the log is nM.

1. CN1CCN(Cc2ccc(NC(=O)Nc3cccc(Sc4ccc5c(/C=C/c6ccccn6)n[nH]c5c4)c3)cc2C(F)(F)F)CC1: 1.79
2. Cc1ccc(-c2n[nH]c3cc(SCCC(=O)Nc4ccc(CN5CCN(C)CC5)c(C(F)(F)F)c4)ccc23)cn1: 2.71
3. Cc1nc(NC(=O)C2CCN(C)CC2)sc1-c1ccc2c(/C=C/c3ccccn3)n[nH]c2c1: 1.95
4. Cc1nc(NC(=O)CN2CCN(C)CC2)sc1-c1ccc2c(-c3cccnc3)n[nH]c2c1: 2.40

Exam item: Tell me measured log10 GI50 for `CN1CCN(Cc2ccc(NC(=O)CCSc3ccc4c(/C=C/c5ccncc5)n[nH]c4c3)cc2C(F)(F)F)CC1` please.
Marked response: 1.26

Exam item: Quote log10 GI50 reported for Cc1nc(NC(=O)CC2CCCNC2)sc1-c1ccc2c(/C=C/c3ccccn3)n[nH]c2c1 (stereo unspecified) please.
Marked response: 2.48

Exam item: Return reported log10 GI50. Input compound: `Cc1n[nH]c2cc(SCCC(=O)Nc3ccc(CN4CCN(C)CC4)c(C(F)(F)F)c3)ccc12`
Marked response: 2.86

Just for reference, ChEMBL document CHEMBL4765452 is where these values come from.
